Origin of the recorded values: patent US20110230472A1

# target_or_system: PI-3 kinase γ (Homo sapiens, UniProt P48736)
# Sequence (P48736 whole entry): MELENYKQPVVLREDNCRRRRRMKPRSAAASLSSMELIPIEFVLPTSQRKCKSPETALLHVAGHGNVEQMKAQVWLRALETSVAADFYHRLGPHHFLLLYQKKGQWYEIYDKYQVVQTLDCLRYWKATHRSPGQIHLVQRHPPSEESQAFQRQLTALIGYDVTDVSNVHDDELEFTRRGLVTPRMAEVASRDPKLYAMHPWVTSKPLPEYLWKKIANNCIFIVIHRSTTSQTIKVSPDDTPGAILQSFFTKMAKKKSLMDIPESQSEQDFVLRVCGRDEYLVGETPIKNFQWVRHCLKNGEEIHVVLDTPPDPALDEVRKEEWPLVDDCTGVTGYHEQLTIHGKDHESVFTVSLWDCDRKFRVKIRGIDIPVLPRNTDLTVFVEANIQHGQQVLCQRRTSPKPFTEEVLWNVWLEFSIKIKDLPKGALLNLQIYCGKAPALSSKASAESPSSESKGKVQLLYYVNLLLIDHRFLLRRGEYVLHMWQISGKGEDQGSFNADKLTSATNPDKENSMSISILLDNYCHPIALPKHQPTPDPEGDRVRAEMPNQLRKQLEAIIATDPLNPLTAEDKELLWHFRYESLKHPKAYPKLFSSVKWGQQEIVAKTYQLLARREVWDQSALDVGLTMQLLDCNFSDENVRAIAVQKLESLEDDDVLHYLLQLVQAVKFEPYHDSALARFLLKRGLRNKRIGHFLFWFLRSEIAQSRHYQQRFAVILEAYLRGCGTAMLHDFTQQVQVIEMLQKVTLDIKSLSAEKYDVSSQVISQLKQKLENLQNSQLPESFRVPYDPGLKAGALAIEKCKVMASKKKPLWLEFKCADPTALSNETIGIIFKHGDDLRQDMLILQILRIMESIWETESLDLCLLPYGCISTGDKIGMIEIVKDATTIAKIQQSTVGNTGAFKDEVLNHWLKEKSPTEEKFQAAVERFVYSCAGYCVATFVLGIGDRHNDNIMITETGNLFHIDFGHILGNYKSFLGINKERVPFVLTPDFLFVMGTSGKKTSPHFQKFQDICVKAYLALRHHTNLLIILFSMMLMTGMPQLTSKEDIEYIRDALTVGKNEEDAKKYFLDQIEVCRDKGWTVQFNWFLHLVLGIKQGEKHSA
# experiment_notes: PI3Kγ inhibitory activity, PI3-kinase HTRF assay (inhibition ratio)
# Type: biochemical
# test_conditions: 0.5 h; PI3Kγ, compound at 10 μM
measured_attribute: inhibition at 10 µM

[[record]]
structure_as_smiles = "CC(=O)Nc1cc2n(n1)CCN2c1ccc2c(c1)CCC2=O"
observed = "≥ 95%"

[[record]]
structure_as_smiles = "COc1cc(N2CCc3nc(NC(=O)N[C@@H](CC(=O)OC(C)(C)C)C(=O)O)sc3C2)nc(OC)n1"
observed = "≥ 95%"


Report inhibition at 10 µM under test system PI-3 kinase γ (Homo sapiens, UniProt P48736) for COc1cc(N2CCc3nc(NC(=O)NCCC(=O)N(C(C)C)C(C)C)sc3C2)nc(OC)n1 .
≥ 95%

Report inhibition at 10 µM under test system PI-3 kinase γ (Homo sapiens, UniProt P48736) for COc1cccc(CC(=O)Nc2nc3c(s2)CN(c2cc(OC)nc(OC)n2)CC3)c1 .
88%

Report inhibition at 10 µM under test system PI-3 kinase γ (Homo sapiens, UniProt P48736) for COc1cc(N2CCc3nc(NC(=O)NCCCC(=O)OC(C)(C)C)sc3C2)nc(OC)n1 .
90%

Report inhibition at 10 µM under test system PI-3 kinase γ (Homo sapiens, UniProt P48736) for COc1cc(N2CCc3nc(NC(=O)NCCC(=O)N4CCC[C@H]4C(=O)OC(C)(C)C)sc3C2)nc(OC)n1 .
≥ 95%

Report inhibition at 10 µM under test system PI-3 kinase γ (Homo sapiens, UniProt P48736) for COc1cc(N2CCc3nc(NC(=O)Cc4cccc(C(F)(F)F)c4)sc3C2)nc(OC)n1 .
≥ 95%

Report inhibition at 10 µM under test system PI-3 kinase γ (Homo sapiens, UniProt P48736) for CNC(=O)Nc1cc2n(n1)CCN2c1ccc(C(=O)NC)s1 .
78%

Report inhibition at 10 µM under test system PI-3 kinase γ (Homo sapiens, UniProt P48736) for CC(=O)Nc1cc2n(n1)CCN2c1ccc2cnccc2c1 .
≥ 95%

Report inhibition at 10 µM under test system PI-3 kinase γ (Homo sapiens, UniProt P48736) for COc1cc(N2CCc3nc(NC(=O)CCNC(=O)OC(C)(C)C)sc3C2)nc(OC)n1 .
≥ 95%

Report inhibition at 10 µM under test system PI-3 kinase γ (Homo sapiens, UniProt P48736) for COc1cc(N2CCc3nc(NC(=O)CC(=O)OC(C)(C)C)sc3C2)nc(OC)n1 .
89%

Report inhibition at 10 µM under test system PI-3 kinase γ (Homo sapiens, UniProt P48736) for COC(=O)[C@H](CC(=O)OC(C)(C)C)NC(=O)Nc1nc2c(s1)CN(c1cc(OC)nc(OC)n1)CC2 .
≥ 95%

Report inhibition at 10 µM under test system PI-3 kinase γ (Homo sapiens, UniProt P48736) for COc1cc(N2CCc3nc(NC(=O)NCC(=O)OC(C)(C)C)sc3C2)nc(OC)n1 .
88%

###

As an illustration, consider measured Ki for compounds on PI-3 kinase γ (Homo sapiens, UniProt P48736).
Respond numerically; units are nM and should not be typed.

// known answers, use as guide
[[record]]
compound = "COC(=O)Nc1cc[nH]c1C(=O)Nc1cc2n(n1)CCN2c1ccc2c(c1)CCN(C)C2=O [Compound I-398]"
observed = 49

[[record]]
compound = "CN1CCc2cc(N3CCn4nc(NC(=O)c5cnc(N)s5)cc43)ccc2C1=O [Compound I-380]"
observed = 32

[[record]]
compound = "COc1cc(N2CCc3nc(NC(=O)NCCC(=O)N4CCCCC4)sc3C2)nc(OC)n1 [Compound I-266]"
observed = 36

[[record]]
compound = "CN1CCc2cc(N3CCn4nc(NC(=O)c5cnc(NC(=O)OC(C)(C)C)s5)cc43)ccc2C1=O [Compound I-375]"
observed = 23

[[record]]
compound = "COc1cc(N2CCc3nc(NC(=O)NCC(=O)O)sc3C2)nc(OC)n1 [Compound I-208]"
observed = 22

[[record]]
compound = "COC(=O)[C@H](CC(=O)OC(C)(C)C)NC(=O)Nc1nc2c(s1)CN(c1cc(OC)nc(OC)n1)CC2 [Compound I-277]"
observed = 36

[[record]]
compound = "CCOC(=O)CNC(=O)Nc1nc2c(s1)CN(c1cc(OC)nc(OC)n1)CC2 [Compound I-202]"
observed = 49

[[record]]
compound = "COc1cc(N2CCc3nc(NC(=O)Nc4ccon4)sc3C2)nc(OC)n1 [Compound I-303]"
observed = 45


Report Ki under test system PI-3 kinase γ (Homo sapiens, UniProt P48736) for CC(=O)Nc1cc2n(n1)CCN2c1ccc2cnccc2c1 [Compound I-284] .
40

###

Quick reference: inhibition at 50 µM of the listed items.
# target_or_system: UniProtKB P48736
# experiment_notes: PI3Kγ inhibitory activity, PI3-kinase HTRF assay (inhibition ratio)
# Type: biochemical
# test_conditions: 0.5 h; PI3Kγ, compound at 50 μM

// known answers, use as guide
[[record]]
compound = "COc1cc(N2CCc3nc(NC(C)=O)sc3C2)nc(OC)n1 [Compound I-214]"
observed = "≥ 95%"

[[record]]
compound = "COc1ccc(Nc2cc3n(n2)CCN3C(=O)c2ccccc2)cc1 [Compound I-4]"
observed = "≥ 95%"

[[record]]
compound = "CNC(=O)Nc1cc2n(n1)CCN2c1cc(Br)cc(C(=O)N2CCNCC2)c1 [Compound I-185]"
observed = "≥ 95%"


In one line, give reported inhibition at 50 µM of the entry CNC(=O)Nc1nc2c(s1)CN(c1cc(Oc3ccccc3)nc(OC)n1)CC2 [Compound I-138] .
≥ 95%

###

# target_or_system: human ether-a-go-go related gene (hERG) channel (Homo sapiens, UniProt Q12809)
# Construct: expressed in transfected cells; host or cells: HEK293
# Sequence (Q12809 whole entry): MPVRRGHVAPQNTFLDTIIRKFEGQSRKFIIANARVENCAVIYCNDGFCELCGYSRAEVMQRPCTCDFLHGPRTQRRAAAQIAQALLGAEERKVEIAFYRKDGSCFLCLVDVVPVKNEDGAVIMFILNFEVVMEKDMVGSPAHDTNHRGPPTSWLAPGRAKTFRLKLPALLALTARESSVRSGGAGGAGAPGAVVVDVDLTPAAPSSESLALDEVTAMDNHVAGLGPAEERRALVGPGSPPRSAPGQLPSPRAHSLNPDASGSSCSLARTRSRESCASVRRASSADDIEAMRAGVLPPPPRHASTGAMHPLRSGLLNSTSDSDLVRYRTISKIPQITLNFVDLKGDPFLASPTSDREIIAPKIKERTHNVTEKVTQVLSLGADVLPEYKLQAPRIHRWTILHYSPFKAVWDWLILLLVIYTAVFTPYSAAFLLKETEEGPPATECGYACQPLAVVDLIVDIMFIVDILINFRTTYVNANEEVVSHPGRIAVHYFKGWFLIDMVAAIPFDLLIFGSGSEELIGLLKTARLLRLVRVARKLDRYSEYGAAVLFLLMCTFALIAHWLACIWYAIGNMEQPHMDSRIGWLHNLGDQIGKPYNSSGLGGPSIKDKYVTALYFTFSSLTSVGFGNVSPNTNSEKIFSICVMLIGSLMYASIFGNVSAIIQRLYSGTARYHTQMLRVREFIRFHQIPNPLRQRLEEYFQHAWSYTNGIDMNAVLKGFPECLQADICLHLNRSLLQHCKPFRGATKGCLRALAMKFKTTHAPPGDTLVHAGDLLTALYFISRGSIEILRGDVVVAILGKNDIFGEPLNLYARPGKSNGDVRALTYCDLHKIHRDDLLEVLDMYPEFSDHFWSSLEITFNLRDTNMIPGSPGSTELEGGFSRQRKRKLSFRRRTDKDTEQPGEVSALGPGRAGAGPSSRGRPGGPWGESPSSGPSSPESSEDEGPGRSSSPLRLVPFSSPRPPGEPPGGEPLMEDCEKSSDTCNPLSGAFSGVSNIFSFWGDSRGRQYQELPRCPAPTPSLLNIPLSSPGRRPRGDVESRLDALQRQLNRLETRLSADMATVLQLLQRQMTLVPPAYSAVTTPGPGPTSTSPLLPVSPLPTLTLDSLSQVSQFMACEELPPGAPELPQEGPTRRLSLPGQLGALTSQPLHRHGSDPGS
# experiment_notes: hERG test, whole-cell patch-clamp
# Type: cell-based
# test_conditions: HEK293 cell expressing hERG; applied for 10 minutes; concentration not given
measured_attribute: inhibition ratio for the maximum tail current (IKr) (%)
Respond numerically; units are % and should not be typed.

// known answers, use as guide
[[record]]
structure_as_smiles = "CNC(=O)Nc1cc2n(n1)CCN2c1cc(C(=O)N2CCOCC2)cc(-c2ccc(N)nc2)c1"
target_or_system = "human ether-a-go-go related gene (hERG) channel (Homo sapiens, UniProt Q12809)"
unit_info = "%"
observed = 7.3

[[record]]
structure_as_smiles = "CN1CCc2cc(N3CCn4nc(NC(=O)c5cccnc5)cc43)ccc2C1=O"
target_or_system = "human ether-a-go-go related gene (hERG) channel (Homo sapiens, UniProt Q12809)"
unit_info = "%"
observed = 6

[[record]]
structure_as_smiles = "CNC(=O)Nc1cc2n(n1)CCN2c1ccc(C(N)=O)cc1"
target_or_system = "human ether-a-go-go related gene (hERG) channel (Homo sapiens, UniProt Q12809)"
unit_info = "%"
observed = "−0.4"

[[record]]
structure_as_smiles = "CNC(=O)Nc1nc2c(s1)CN(c1cc(Cl)nc(N)n1)CC2"
target_or_system = "human ether-a-go-go related gene (hERG) channel (Homo sapiens, UniProt Q12809)"
unit_info = "%"
observed = 8.4

[[record]]
structure_as_smiles = "CNC(=O)Nc1cc2n(n1)CCN2c1cc(Br)cc(C(=O)N2CCNCC2)c1"
target_or_system = "human ether-a-go-go related gene (hERG) channel (Homo sapiens, UniProt Q12809)"
unit_info = "%"
observed = 8.3


In one line, give reported inhibition ratio for the maximum tail current (IKr) of the entry CC(=O)Nc1nc2c(s1)CN(c1ccccc1)CC2 .
9.1

In one line, give reported inhibition ratio for the maximum tail current (IKr) of the entry COc1cc(N2CCc3nc(NC(=O)NCC(=O)O)sc3C2)nc(OC)n1 .
2.7

In one line, give reported inhibition ratio for the maximum tail current (IKr) of the entry COc1cc(N2CCc3nc(NC(=O)NCc4cc(=O)[nH]o4)sc3C2)nc(OC)n1 .
5

In one line, give reported inhibition ratio for the maximum tail current (IKr) of the entry COc1cc(N2CCc3nc(NC(=O)NCCC(=O)O)sc3C2)nc(OC)n1.Cl.Cl .
1.6

###

# target_or_system: PI-3 kinase γ (Homo sapiens)
# experiment_notes: PI3Kγ inhibitory activity, PI3-kinase HTRF assay (inhibition ratio)
# Assay type: biochemical
# test_conditions: 0.5 h; compound at 10 μmol/L
Quick reference: inhibition at 10 µM of the listed items.
Respond numerically; units are % and should not be typed.

[[record]]
structure_as_smiles = "CN1CCc2cc(N3CCn4nc(NC(=O)c5ccc(C(=O)O)cc5)cc43)ccc2C1=O"
observed = 92

[[record]]
structure_as_smiles = "CN1CCc2cc(N3CCn4nc(NC(=O)c5ccc(S(C)(=O)=O)s5)cc43)ccc2C1=O"
observed = 80

[[record]]
structure_as_smiles = "COc1cc(N2CCc3nc(NC(=O)C4CN(C(=O)OC(C)(C)C)C4)sc3C2)nc(OC)n1"
observed = 82

[[record]]
structure_as_smiles = "CN1CCc2cc(N3CCn4nc(NC(=O)c5cccc(NC(=O)OC(C)(C)C)c5)cc43)ccc2C1=O"
observed = 83

[[record]]
structure_as_smiles = "CN1CCc2cc(N3CCn4nc(NC(=O)[C@@H]5CCC(=O)N5)cc43)ccc2C1=O"
observed = 84

[[record]]
structure_as_smiles = "COc1cc(N2CCc3nc(NC(=O)Nc4ccccc4Cl)sc3C2)nc(OC)n1"
observed = 84

[[record]]
structure_as_smiles = "CC(C)NS(=O)(=O)c1cc(C(=O)Nc2cc3n(n2)CCN3c2ccc3c(c2)CCN(C)C3=O)cs1"
observed = 90

[[record]]
structure_as_smiles = "CN1CCc2cc(N3CCn4nc(NC(=O)c5ccccc5N)cc43)ccc2C1=O"
observed = 81


In one line, give reported inhibition at 10 µM of the entry CCCNS(=O)(=O)c1ccc(C(=O)Nc2cc3n(n2)CCN3c2ccc3c(c2)CCN(C)C3=O)cc1 .
90

In one line, give reported inhibition at 10 µM of the entry CC(C)NC(=O)c1ccccc1NC(=O)Nc1nc2c(s1)CN(C(=O)OCc1ccccc1)CC2 .
88

In one line, give reported inhibition at 10 µM of the entry CC(C)NC(=O)c1ccccc1NC(=O)Nc1nc2c(s1)CN(C(=O)c1ccccc1)CC2 .
88

In one line, give reported inhibition at 10 µM of the entry COc1nc(Cl)cc(N2CCc3nc(NC(C)=O)sc3C2)n1 .
88

In one line, give reported inhibition at 10 µM of the entry CC(=O)Nc1ncc(C(=O)Nc2cc3n(n2)CCN3c2ccc3c(c2)CCN(C)C3=O)s1 .
75

In one line, give reported inhibition at 10 µM of the entry CNc1ccccc1C(=O)Nc1cc2n(n1)CCN2c1ccc2c(c1)CCN(C)C2=O .
78
